Species on record: Rattus norvegicus
Assay: Open TG-GATES - Regimen: Single
Type: toxicity, organism-based, Sprague-Dawley
Design: regimen Single, gender Male, age 6 weeks
Settings: in vivo, po, 100 mg/kg, 24 h, tissue Blood, route gavage, dose level Low
assay readout: Eos (%)
// return numeric value only (unit: %, not printed)

Some solved entries appear below for comparison.
[[record]]
compound = "COc1ccc2[nH]c([S+]([O-])Cc3ncc(C)c(OC)c3C)nc2c1 (centres undefined)"
assay_readout = "Eos"
assay_value = 1

[[record]]
compound = "CCOC(=O)CCC(=O)O[C@H]1[C@H](O[C@@H]2[C@@H](C)[C@H](O[C@H]3C[C@@](C)(OC)[C@@H](O)[C@H](C)O3)[C@@H](C)C(=O)O[C@H](CC)[C@@](C)(O)[C@H](O)[C@@H](C)C(=O)[C@H](C)C[C@@]2(C)O)O[C@H](C)C[C@@H]1N(C)C [ERYTHROMYCIN ETHYLSUCCINATE]"
assay_readout = "Eos"
assay_value = 0.8

[[record]]
compound = "COC1=CC(=O)C[C@@H](C)[C@]12Oc1c(Cl)c(OC)cc(OC)c1C2=O"
assay_readout = "Eos"
assay_value = 1


# context switch: different compound, same Eos
The measured Eos associated with "NC(N)=Nc1nc(CSCCC(N)=NS(N)(=O)=O)cs1" reads 1

---

Species: Rattus norvegicus
Test: Open TG-GATES - Regimen: Daily Repeat
Format: toxicity, organism-based, Sprague-Dawley
Design: regimen Daily Repeat, gender Male, age 6 weeks
Details: in vivo, po, 10 mg/kg, […], tissue Blood, route gavage, dose level Low, time 28 day
We begin with a simple list: items and their reported Ht.
// return numeric value only (unit: %, not printed)

Some solved entries appear below for comparison.
[[record]]
compound = "CN(C)CCCN1c2ccccc2CCc2ccccc21"
assay_readout = "Ht"
assay_value = 43.7

[[record]]
compound = "CC(C)OC(=O)C(C)(C)Oc1ccc(C(=O)c2ccc(Cl)cc2)cc1 [FENOFIBRATE]"
assay_readout = "Ht"
assay_value = 44.6

[[record]]
compound = "CN(C)CCN(Cc1cccs1)c1ccccn1"
assay_readout = "Ht"
assay_value = 44.4


The measured Ht associated with "CC1=C(/C=C/C(C)=C/C=C/C(C)=C/CO)C(C)(C)CCC1" reads 41.2

---

We begin with a simple list: items and their reported GLC.
Organism: Rattus norvegicus
Test: Open TG-GATES - Regimen: Daily Repeat
Format: toxicity, organism-based, Sprague-Dawley
Design: regimen Daily Repeat, gender Male, age 6 weeks
Conditions: in vivo, po, 10 mg/kg, […], tissue Plasma, route gavage, dose level Low, time 14 day
// return numeric value only (unit: mg/dL, not printed)

[[record]]
molecule = "CN(C)CCCN1c2ccccc2CCc2ccccc21"
assay_value = 175.6

[[record]]
molecule = "CC(C)OC(=O)C(C)(C)Oc1ccc(C(=O)c2ccc(Cl)cc2)cc1 [FENOFIBRATE]"
assay_value = 193.2

[[record]]
molecule = "CC1=C(/C=C/C(C)=C/C=C/C(C)=C/CO)C(C)(C)CCC1"
assay_value = 195


# context switch: different molecule, same GLC
The measured GLC associated with "CN(C)CCN(Cc1cccs1)c1ccccn1" reads 175.4

---

Species on record: Rattus norvegicus
Assay: Open TG-GATES - Regimen: Single
Assay type: toxicity, organism-based, Sprague-Dawley
Design: regimen Single, gender Male, age 6 weeks
Conditions: in vivo, po, 100 mg/kg, 6 h, tissue Blood, route gavage, dose level High
assay readout: Plat (x10_4/uL)
// return numeric value only (unit: x10_4/uL, not printed)

[[record]]
compound = "CN(C)CCCN1c2ccccc2CCc2ccc(Cl)cc21 [CLOMIPRAMINE]"
assay_value = 125.1


The measured Plat associated with "CN(C)CCN(Cc1cccs1)c1ccccn1" reads 120.5

The measured Plat associated with CC1=C(/C=C/C(C)=C/C=C/C(C)=C/CO)C(C)(C)CCC1 [RETINOL] reads 120.3

The measured Plat associated with CN(C)CCCN1c2ccccc2CCc2ccccc21 [IMIPRAMINE] reads 108.9

---

Species: Rattus norvegicus
Assay: Open TG-GATES - Regimen: Daily Repeat
Format: toxicity, organism-based, Sprague-Dawley
Parameters: regimen Daily Repeat, gender Male, age 6 weeks
Settings: in vivo, po, 300 mg/kg, 72 h, tissue Plasma, route gavage, dose level Middle, time 3 day
assay readout: TG (mg/dL)
// return numeric value only (unit: mg/dL, not printed)

Some solved entries appear below for comparison.
[[record]]
molecule = "COc1ccc2[nH]c([S+]([O-])Cc3ncc(C)c(OC)c3C)nc2c1 (stereo not given)"
assay_readout = "TG"
quantity_unit = "mg/dL"
assay_value = 85

[[record]]
molecule = "NC(N)=Nc1nc(CSCCC(N)=NS(N)(=O)=O)cs1"
assay_readout = "TG"
quantity_unit = "mg/dL"
assay_value = 77.6

[[record]]
molecule = "COC1=CC(=O)C[C@@H](C)[C@]12Oc1c(Cl)c(OC)cc(OC)c1C2=O"
assay_readout = "TG"
quantity_unit = "mg/dL"
assay_value = 69

[[record]]
molecule = "CCOc1ccc(NC(=O)CC(C)O)cc1 (stereo not given)"
assay_readout = "TG"
quantity_unit = "mg/dL"
assay_value = 116.2


The measured TG associated with CCOC(=O)CCC(=O)O[C@H]1[C@H](O[C@@H]2[C@@H](C)[C@H](O[C@H]3C[C@@](C)(OC)[C@@H](O)[C@H](C)O3)[C@@H](C)C(=O)O[C@H](CC)[C@@](C)(O)[C@H](O)[C@@H](C)C(=O)[C@H](C)C[C@@]2(C)O)O[C@H](C)C[C@@H]1N(C)C [ERYTHROMYCIN ETHYLSUCCINATE] reads 100.6

---

We begin with a simple list: items and their reported Lym.
Species on record: Rattus norvegicus
Experiment: Open TG-GATES - Regimen: Daily Repeat
Type: toxicity, organism-based, Sprague-Dawley
Design: regimen Daily Repeat, gender Male, age 6 weeks
Settings: in vivo, po, 0 mg/kg, 72 h, tissue Blood, route gavage, dose level Control, time 3 day
// return numeric value only (unit: %, not printed)

Some solved entries appear below for comparison.
[[record]]
molecule = "COc1ccc2[nH]c([S+]([O-])Cc3ncc(C)c(OC)c3C)nc2c1 (centres undefined)"
assay_value = 80.8

[[record]]
molecule = "O=C(CCCN1CCC(O)(c2ccc(Cl)cc2)CC1)c1ccc(F)cc1"
assay_value = 84.4

[[record]]
molecule = "CN(C)CCN(Cc1cccs1)c1ccccn1"
assay_value = 80.4


# context switch: different molecule, same Lym
The measured Lym associated with "CC1=C(/C=C/C(C)=C/C=C/C(C)=C/CO)C(C)(C)CCC1" reads 81.8

---

Species on record: Rattus norvegicus
Test: Open TG-GATES - Regimen: Daily Repeat
Format: toxicity, organism-based, Sprague-Dawley
Parameters: regimen Daily Repeat, gender Male, age 6 weeks
Details: in vivo, po, 300 mg/kg, 72 h, tissue Plasma, route gavage, dose level Middle, time 3 day
We begin with a simple list: items and their reported CRE.
// return numeric value only (unit: mg/dL, not printed)

[[record]]
molecule = "NC(N)=Nc1nc(CSCCC(N)=NS(N)(=O)=O)cs1"
assay_value = 0.4

[[record]]
molecule = "CCOc1ccc(NC(=O)CC(C)O)cc1 (stereo not given)"
assay_value = 0.2

[[record]]
molecule = "COc1ccc2[nH]c([S+]([O-])Cc3ncc(C)c(OC)c3C)nc2c1 (stereo not given)"
assay_value = 0.4

[[record]]
molecule = "COC1=CC(=O)C[C@@H](C)[C@]12Oc1c(Cl)c(OC)cc(OC)c1C2=O"
assay_value = 0.4


The measured CRE associated with CCOC(=O)CCC(=O)O[C@H]1[C@H](O[C@@H]2[C@@H](C)[C@H](O[C@H]3C[C@@](C)(OC)[C@@H](O)[C@H](C)O3)[C@@H](C)C(=O)O[C@H](CC)[C@@](C)(O)[C@H](O)[C@@H](C)C(=O)[C@H](C)C[C@@]2(C)O)O[C@H](C)C[C@@H]1N(C)C [ERYTHROMYCIN ETHYLSUCCINATE] reads 0.2

---

Organism: Rattus norvegicus
Assay: Open TG-GATES - Regimen: Daily Repeat
Type: toxicity, organism-based, Sprague-Dawley
Set-up: regimen Daily Repeat, gender Male, age 6 weeks
Conditions: in vivo, po, 100 mg/kg, […], tissue Plasma, route gavage, dose level Low, time 28 day
We begin with a simple list: items and their reported TG.
// return numeric value only (unit: mg/dL, not printed)

The measured TG associated with COc1ccc2[nH]c([S+]([O-])Cc3ncc(C)c(OC)c3C)nc2c1 (stereo not given) [OMEPRAZOLE] reads 133

The measured TG associated with NC(N)=Nc1nc(CSCCC(N)=NS(N)(=O)=O)cs1 [FAMOTIDINE] reads 91

---

We begin with a simple list: items and their reported PT.
Organism: Rattus norvegicus
Assay: Open TG-GATES - Regimen: Single
Format: toxicity, organism-based, Sprague-Dawley
Parameters: regimen Single, gender Male, age 6 weeks
Conditions: in vivo, po, 100 mg/kg, 6 h, tissue Blood, route gavage, dose level Low
Could you kindly put the unit after your number?

[[record]]
compound = "COC1=CC(=O)C[C@@H](C)[C@]12Oc1c(Cl)c(OC)cc(OC)c1C2=O"
assay_readout = "PT"
assay_value = "13 s"


The measured PT associated with COc1ccc2[nH]c([S+]([O-])Cc3ncc(C)c(OC)c3C)nc2c1 (centres undefined) reads 12.9 s

The measured PT associated with "NC(N)=Nc1nc(CSCCC(N)=NS(N)(=O)=O)cs1" reads 12.4 s

The measured PT associated with CCOC(=O)CCC(=O)O[C@H]1[C@H](O[C@@H]2[C@@H](C)[C@H](O[C@H]3C[C@@](C)(OC)[C@@H](O)[C@H](C)O3)[C@@H](C)C(=O)O[C@H](CC)[C@@](C)(O)[C@H](O)[C@@H](C)C(=O)[C@H](C)C[C@@]2(C)O)O[C@H](C)C[C@@H]1N(C)C [ERYTHROMYCIN ETHYLSUCCINATE] reads 16 s

Data origin: ChEMBL document CHEMBL3885861
